Test system: IFN induction in dsDNA-stimulated human whole blood
Test: Human whole blood assay, dsDNA transfection, IFNα2a production (hWB IC50);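 further: cGAS pathway activity, IFNα2a in plasma by MSD immunoassay after 22 h at 37 °C, 8 concentrations up to 10 µM in 0.1% DMSO, DMSO controls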
Assay type: cell-based
value_kind: IC50 (µM)
# output: bare number, implied unit µM

Sample answers from the record:
| chemical_smiles | measured_target | unit_name | test_value |
| --- | --- | --- | --- |
| C[C@H]1CS(=O)(=O)CC[C@]1(F)c1cc(Cl)cnc1O[C@H]1C[C@@H](C(=O)O)N(c2nc(C(F)F)nc3c2oc2ccccc23)C1 | IFN induction in dsDNA-stimulated human whole blood | µM | 0.006 |
| C[C@H]1CN(C2COC2)CC[C@]1(F)c1cc(Cl)cnc1O[C@H]1C[C@@H](C(=O)O)N(c2nc(C(F)F)nc3c2oc2ccccc23)C1 | IFN induction in dsDNA-stimulated human whole blood | µM | 0.165 |
| O=C(O)[C@@H]1C[C@H](Oc2ncc(Cl)cc2[C@@]2(F)CCS(=O)(=O)C3(COC3)C2)CN1c1nc(C(F)F)nc2c1oc1ccccc12 | IFN induction in dsDNA-stimulated human whole blood | µM | 0.316 |
| CC(=O)N1CC[C@](F)(c2cc(-c3cccc(N(C)C)c3)cnc2O[C@H]2C[C@@H](C(=O)O)N(c3nc(C(F)F)nc4c3oc3ccccc34)C2)[C@@H](C)C1 | IFN induction in dsDNA-stimulated human whole blood | µM | 0.046 |
| O=C(O)[C@@H]1C[C@H](Oc2ncc(Cl)cc2[C@]2(F)CCOC[C@@H]2C(F)(F)F)CN1c1nc(C(F)F)nc2c1oc1ccccc12 | IFN induction in dsDNA-stimulated human whole blood | µM | 0.502 |

// below: IC50 requested for another compound
Report IC50 for CO[C@]1(c2cc(Cl)cnc2O[C@H]2C[C@@H](C(=O)O)N(c3nc(C(F)F)nc4c3oc3ccccc34)C2)CCS(=O)(=O)C[C@@H]1C
0.287
